Recorded LogP by entry
Conditions: pH 2.7
assay.readout: LogP

{"columns": ["structure.as.smiles", "result.value"],
 "data": [
  ["COc1cccc(/C(=N/OCc2csc(NC(=O)OC(C)(C)C)n2)c2nc(=O)on2C)c1", 3.13],
  ["CCCCCCCC(=O)Nc1nc(CON=C(c2ccccc2)c2nc(=O)on2C)cs1", 3.94],
  ["Cn1oc(=O)nc1C(=NOCc1csc(NC(=O)OCC2CC2)n1)c1ccccc1", 2.84],
  ["COc1ccc(CC(=O)Nc2nc(CON=C(c3ccccc3)c3nc(=O)on3C)cs2)cc1", 2.80]
]}

* * *

Conditions: pH 2.7
assay.readout: LogP

{"columns": ["compound", "result.value"],
 "data": [
  ["CCC#CCOC(=O)Nc1nc(CON=C(c2ccccc2)c2nc(=O)on2C)cs1", 2.98],
  ["Cn1oc(=O)nc1/C(=N\\OCc1csc(NC(=O)OCCC2CCCC2)n1)c1ccccc1", 3.96],
  ["CC(CC1CC1)OC(=O)Nc1nc(CON=C(c2ccccc2)c2nc(=O)on2C)cs1 (centres unmarked)", 3.42],
  ["Cc1ccc(OC(C)C(=O)Nc2nc(CON=C(c3ccccc3)c3nc(=O)on3C)cs2)cc1 (centres unmarked)", 3.46],
  ["COc1ccc(OC(=O)Nc2nc(CO/N=C(/c3ccccc3)c3nc(=O)on3C)cs2)cc1", 2.94],
  ["CCCCCOC(=O)Nc1nc(CON=C(c2ccccc2)c2nc(=O)on2C)cs1", 3.51],
  ["Cn1oc(=O)nc1C(=NOCc1csc(NC(=O)SC(C)(C)C)n1)c1ccccc1", 3.44],
  ["C=CCC(C)OC(=O)Nc1nc(CON=C(c2ccccc2)c2nc(=O)on2C)cs1 (centres unmarked)", 3.15]
]}

* * *

Settings: pH 2.7
assay.readout: LogP

{"columns": ["compound", "result.value"],
 "data": [
  ["Cn1oc(=O)nc1/C(=N\\OCc1csc(NC(=O)C2CCCC2)n1)c1ccccc1", 2.88],
  ["Cn1oc(=O)nc1C(=NOCc1csc(NC(=O)c2ccc(F)cc2)n1)c1ccccc1", 3.00],
  ["CCCCCCC(=O)Nc1nc(CON=C(c2ccccc2)c2nc(=O)on2C)cs1", 3.55],
  ["CCCCC(=O)Nc1nc(CO/N=C(/c2ccccc2)c2nc(=O)on2C)cs1", 2.80],
  ["CC#CCC(C)OC(=O)Nc1nc(CON=C(c2ccccc2)c2nc(=O)on2C)cs1 (centres unmarked)", 3.06],
  ["Cn1oc(=O)nc1C(=NOCc1csc(NC(=O)OCCc2ccccc2)n1)c1ccccc1", 3.35],
  ["COc1cccc(C(=O)Nc2nc(CON=C(c3ccccc3)c3nc(=O)on3C)cs2)c1", 2.98],
  ["Cn1oc(=O)nc1C(=NOCc1csc(NC(=O)Cc2cccs2)n1)c1ccccc1", 2.71]
]}

* * *

Settings: pH 2.7
# LogP per record follows
assay.readout: LogP

{"columns": ["molecule", "assay.readout", "result.value"],
 "data": [
  ["Cn1oc(=O)nc1C(=NOCc1csc(NC(=O)c2ccccc2)n1)c1ccccc1 [Example 15]", "LogP", 2.88],
  ["CCCCC(CC)COC(=O)Nc1nc(CON=C(c2ccccc2)c2nc(=O)on2C)cs1 (centres unmarked) [Example 7]", "LogP", 4.56],
  ["Cn1oc(=O)nc1C(=NOCc1csc(NC(=O)OCCC2CC2)n1)c1ccccc1 [Example 78]", "LogP", 3.15],
  ["Cn1oc(=O)nc1C(=NOCc1csc(NC(=O)OCC2CCCCC2)n1)c1ccccc1 [Example 63]", "LogP", 3.92],
  ["Cn1oc(=O)nc1/C(=N\\OCc1csc(NC(=O)CCc2ccccc2)n1)c1ccccc1 [Example 57]", "LogP", 3.09],
  ["Cn1oc(=O)nc1/C(=N\\OCc1csc(NC(=O)OCCC2CCCCC2)n1)c1ccccc1 [Example 45]", "LogP", 4.21],
  ["Cn1oc(=O)nc1/C(=N\\OCc1csc(NC(=O)CC2CCCC2)n1)c1ccccc1 [Example 53]", "LogP", 3.19],
  ["CCCCOC(=O)Nc1nc(CO/N=C(/c2ccccc2)c2nc(=O)on2C)cs1 [Example 59]", "LogP", 3.13],
  ["Cn1oc(=O)nc1C(=NOCc1csc(NC(=O)C2CCCCC2)n1)c1ccccc1 [Example 90]", "LogP", 3.19],
  ["CC(Oc1ccccc1)C(=O)Nc1nc(CON=C(c2ccccc2)c2nc(=O)on2C)cs1 (centres unmarked) [Example 2]", "LogP", 3.15],
  ["Cc1cccc(C(=O)Nc2nc(CON=C(c3ccccc3)c3nc(=O)on3C)cs2)c1 [Example 68]", "LogP", 3.19],
  ["C#CCCOC(=O)Nc1nc(CON=C(c2ccccc2)c2nc(=O)on2C)cs1 [Example 11]", "LogP", 2.56],
  ["Cn1oc(=O)nc1/C(=N\\OCc1csc(NC(=O)OC(C)(C)C(Cl)(Cl)Cl)n1)c1ccccc1 [Example 51]", "LogP", 3.96],
  ["Cc1ccc(C(=O)Nc2nc(CO/N=C(/c3ccccc3)c3nc(=O)on3C)cs2)cc1 [Example 48]", "LogP", 3.17],
  ["CC(OC(=O)Nc1nc(CO/N=C(/c2ccccc2)c2nc(=O)on2C)cs1)C1CCCCC1 (racemic) [Example 56]", "LogP", 4.31],
  ["CCn1oc(=O)nc1/C(=N\\OCc1csc(NC(=O)OCCc2ccccc2)n1)c1ccccc1 [Example 37]", "LogP", 3.55],
  ["CC(OC(=O)Nc1nc(CO/N=C(/c2ccccc2)c2nc(=O)on2C)cs1)C1CCCC1 (centres unmarked) [Example 95]", "LogP", 3.85]
]}

* * *

Details: pH 2.7
Entries and their measured LogP follow.

{"columns": ["compound", "LogP"],
 "data": [
  ["CCN(O)C(=N)/C(=N\\OCc1csc(NC(=O)COc2ccccc2)n1)c1ccccc1", 2.42],
  ["CC(C)CCOC(=O)Nc1nc(CO/N=C(/c2ccccc2)c2nc(=O)on2C)cs1", 3.44],
  ["Cn1oc(=O)nc1C(=NOCc1csc(NC(=O)COCc2ccccc2)n1)c1ccccc1", 3.06],
  ["Cn1oc(=O)nc1C(=NOCc1csc(NC(=O)OC2CC3CCC2C3)n1)c1ccccc1 (stereo not drawn)", 3.60],
  ["CCC(C)SC(=O)Nc1nc(CON=C(c2ccccc2)c2nc(=O)on2C)cs1 (stereo not drawn)", 3.46],
  ["COCCn1oc(=O)nc1/C(=N\\OCc1csc(NC(=O)OCCc2ccccc2)n1)c1ccccc1", 3.55],
  ["Cn1oc(=O)nc1C(=NOCc1csc(NC(=O)OCCOc2ccccc2)n1)c1ccccc1", 3.19],
  ["C=CCCCCOC(=O)Nc1nc(CON=C(c2ccccc2)c2nc(=O)on2C)cs1", 3.51],
  ["CCC(C)(C)C(=O)Nc1nc(CON=C(c2ccccc2)c2nc(=O)on2C)cs1", 3.13]
]}

* * *

Conditions: pH 2.7
Label key: class 1 means LogP under 3; class 0 means LogP of 3 or more.

{"columns": ["molecule", "assigned.label"],
 "data": [
  ["CC(C)CC(=O)Nc1nc(CO/N=C(/c2ccccc2)c2nc(=O)on2C)cs1", "class 1"],
  ["C#CCCCC(=O)Nc1nc(CO/N=C(/c2ccccc2)c2nc(=O)on2C)cs1", "class 1"],
  ["CC=CCCCOC(=O)Nc1nc(CON=C(c2ccccc2)c2nc(=O)on2C)cs1", "class 0"],
  ["Cn1oc(=O)nc1C(=NOCc1csc(NC(=O)Cc2ccccc2)n1)c1ccccc1", "class 1"],
  ["COc1cccc(C(=NOCc2csc(NC(=O)CC3CCCC3)n2)c2nc(=O)on2C)c1", "class 0"],
  ["CCCCCC(=O)Nc1nc(CON=C(c2ccccc2)c2nc(=O)on2C)cs1", "class 0"],
  ["Cn1oc(=O)nc1/C(=N\\OCc1csc(NC(=O)CCC2CCCC2)n1)c1ccccc1", "class 0"],
  ["CC(C(=O)Nc1nc(CO/N=C(/c2ccccc2)c2nc(=O)on2C)cs1)c1ccccc1 (racemic)", "class 0"],
  ["C#CCC(C)OC(=O)Nc1nc(CON=C(c2ccccc2)c2nc(=O)on2C)cs1 (stereo not shown)", "class 1"],
  ["Cn1oc(=O)nc1/C(=N\\OCc1csc(NC(=O)OCc2ccccc2)n1)c1ccccc1", "class 0"],
  ["Cn1oc(=O)nc1C(=NOCc1csc(NC(=O)OCCCC2CCCCC2)n1)c1ccccc1", "class 0"],
  ["CCn1oc(=O)nc1/C(=N\\OCc1csc(NC(=O)COc2ccccc2)n1)c1ccccc1", "class 0"],
  ["COc1cccc(/C(=N/OCc2csc(NC(=O)C3CCc4ccccc4O3)n2)c2nc(=O)on2C)c1 (racemic)", "class 0"]
]}
